- Test system: HOP-62 NSCLC
- ASSAY_EXPLANATION: NCI tumour cell line growth inhibition, 48 h
# TGI per entry

Examples with answers:
[
  {
    "COMPOUND": "Cc1ccc(N=Nc2c(O)c(C(=O)O)cc3ccccc23)cc1C",
    "RESULT": "> 100 µM"
  },
  {
    "COMPOUND": "O=C(NCCCCCCNC(=O)n1cc(F)c(=O)[nH]c1=O)NCCCOCCOCCOCCOCCOCCOCCOCCOCCOCCOCCOCCOCCOCCOCCOCCOCCOCCOCCOCCOCCOCCCNC(=O)C(O)C(O)C(O)C(O)CO (stereo not given)",
    "RESULT": "> 100 µM"
  },
  {
    "COMPOUND": "COc1ccc(-c2nc3sc4c(c3c(=O)[nH]2)CCCCCC4)cc1",
    "RESULT": "> 33.2 µM"
  },
  {
    "COMPOUND": "CN1CC[C@@]2(c3cccc(O)c3)CC(=O)/C(=C/c3ccccc3)[C@H]1C2",
    "RESULT": "58.7 µM"
  },
  {
    "COMPOUND": "COCCN(C(C)=O)C1CCC2(SCCS2)c2[nH]c3ccccc3c21 (stereo not given)",
    "RESULT": "> 100 µM"
  }
]

-- ask Look at this compound and give its reported TGI. O=C1c2ccccc2S(=O)(=O)c2c1cccc2[N+](=O)[O-]
-- reply > 10 µM

-- ask For O=C(c1cccc2ccccc12)C1(Br)S(=O)(=O)OCCOS1(=O)=O , what is its reported TGI?
-- reply > 100 µM

-- ask Can you share its TGI? I mean this compound: Cc1c(/C=N/NC(=O)c2cc(Br)cc(Br)c2O)c(=O)n(-c2ccccc2)n1C
-- reply > 100 µM

-- ask Could you share which TGI value was measured for COc1cccc(N=Cc2cc3cc(Br)ccc3nc2Cl)c1 ?
-- reply > 50 µM

-- ask Entry under review: COc1cc2c(c(OC)c1)C1c3ccccc3NC(=O)N1CC2 (stereo not given) . Reported TGI?
-- reply > 100 µM
